biological target: HLA-B*44:03; test: IEDB peptide-MHC binding, purified MHC/competitive/radioactivity; filed as Kd, often an IC50 or EC50 that approximates it; bounds were set here for any values at or beyond the usual limits of such assays; settings: source organism: Mammarenavirus whitewaterense
assay_readout: pKd
In plain terms, pKd is the concentration in mol/L turned into minus its base-10 logarithm.

Query string: Which pKd reading was recorded for the sequence `LEITDVTTL` ?
Result string: 7.21

###

target: HLA-A*24:02; assay: IEDB peptide-MHC binding, purified MHC/competitive/fluorescence; filed as Kd, often an IC50 or EC50 that approximates it; bounds were set here for any values at or beyond the usual limits of such assays; conditions: source organism: Bacillus thuringiensis str. Al Hakam
pKd: −log10 of the molar value.
assay_readout: pKd

Query string: Item `YYLLFYPTI` with HLA-A*24:02 - pKd?
Result string: ≥ 10.00

###

target: HLA-B*18:01; assay: IEDB peptide-MHC binding, purified MHC/competitive/fluorescence; filed as Kd, often an IC50 or EC50 that approximates it; bounds were set here for any values at or beyond the usual limits of such assays; conditions: source organism: Orthohantavirus sinnombreense
assay_readout: Kd

Query string: Which Kd reading was recorded for the sequence `KLHRYIDSM` ?
Result string: ≥ 20 µM

###

biological target: HLA-A*02:06; assay: IEDB peptide-MHC binding, purified MHC/competitive/radioactivity; filed as Kd, often an IC50 or EC50 that approximates it; bounds were set here for any values at or beyond the usual limits of such assays; details: source organism: Mammarenavirus juninense
assay_readout: Kd (nM)
Please state the figure in nM; there is no need to write the unit.

Query string: Which Kd reading was recorded for the sequence `CNYTKFWYV` ?
Result string: 34.5

###

molecular target: HLA-A*26:01; test: IEDB peptide-MHC binding, purified MHC/competitive/fluorescence; filed as Kd, often an IC50 or EC50 that approximates it; bounds were set here for any values at or beyond the usual limits of such assays; conditions: source organism: Vibrio vulnificus YJ016
pKd: −log10 of the molar value.
assay_readout: pKd

DFISMYFPW | ≤ 4.70

// next entry
Query string: Item `SVMSTFFWE` with HLA-A*26:01 - pKd?
Result string: ≤ 4.70

###

molecular target: HLA-A*33:01; experiment: IEDB peptide-MHC binding, purified MHC/competitive/radioactivity; filed as Kd, often an IC50 or EC50 that approximates it; bounds were set here for any values at or beyond the usual limits of such assays; conditions: source organism: Lassa virus Josiah
# Kd annotations
Please state the figure in nM; there is no need to write the unit.

Past entries and their recorded results:
RTRDIYISRR | 725
KTWMDIEGR | 1710

// next entry
Query string: Which Kd reading was recorded for the sequence `ALMSIISTFH` ?
Result string: 3610

###

molecular target: HLA-B*51:01; test: IEDB peptide-MHC binding, purified MHC/competitive/fluorescence; filed as Kd, often an IC50 or EC50 that approximates it; bounds were set here for any values at or beyond the usual limits of such assays; conditions: source organism: Entamoeba dispar SAW760
assay_readout: Kd

Query string: Which Kd reading was recorded for the sequence `STYQFSLMQ` ?
Result string: ≥ 20 µM

###

molecular target: HLA-B*07:02; experiment: IEDB peptide-MHC binding, purified MHC/direct/fluorescence; filed as Kd, often an IC50 or EC50 that approximates it; bounds were set here for any values at or beyond the usual limits of such assays; conditions: source organism: Rickettsia prowazekii
pKd: −log10 of the molar value.
assay_readout: pKd

Query string: Which pKd reading was recorded for the sequence `NLKLYGAEF` ?
Result string: ≤ 4.70

The reported numbers originate from the Immune Epitope Database (IEDB).
